molecular target: glucan synthase (Candida albicans, UniProt O13428); construct: glucan synthase sources (2 μL permeabilized PM503 cells, or 3 μL membrane preparations from either PM503, BWP17, or ND158); endogenous in cells; host or cells: C. albicans strain BWP17, 100,000 g membrane fraction; experiment: β(1,3) glucan synthase assay, C. albicans BWP17 membrane preparation (IC50); assay type: biochemical; settings: in vitro fungal enzyme activity assay, read-out: IC50 (μg/mL) Candida albicans (converted)
Sequence (O13428 1-1897): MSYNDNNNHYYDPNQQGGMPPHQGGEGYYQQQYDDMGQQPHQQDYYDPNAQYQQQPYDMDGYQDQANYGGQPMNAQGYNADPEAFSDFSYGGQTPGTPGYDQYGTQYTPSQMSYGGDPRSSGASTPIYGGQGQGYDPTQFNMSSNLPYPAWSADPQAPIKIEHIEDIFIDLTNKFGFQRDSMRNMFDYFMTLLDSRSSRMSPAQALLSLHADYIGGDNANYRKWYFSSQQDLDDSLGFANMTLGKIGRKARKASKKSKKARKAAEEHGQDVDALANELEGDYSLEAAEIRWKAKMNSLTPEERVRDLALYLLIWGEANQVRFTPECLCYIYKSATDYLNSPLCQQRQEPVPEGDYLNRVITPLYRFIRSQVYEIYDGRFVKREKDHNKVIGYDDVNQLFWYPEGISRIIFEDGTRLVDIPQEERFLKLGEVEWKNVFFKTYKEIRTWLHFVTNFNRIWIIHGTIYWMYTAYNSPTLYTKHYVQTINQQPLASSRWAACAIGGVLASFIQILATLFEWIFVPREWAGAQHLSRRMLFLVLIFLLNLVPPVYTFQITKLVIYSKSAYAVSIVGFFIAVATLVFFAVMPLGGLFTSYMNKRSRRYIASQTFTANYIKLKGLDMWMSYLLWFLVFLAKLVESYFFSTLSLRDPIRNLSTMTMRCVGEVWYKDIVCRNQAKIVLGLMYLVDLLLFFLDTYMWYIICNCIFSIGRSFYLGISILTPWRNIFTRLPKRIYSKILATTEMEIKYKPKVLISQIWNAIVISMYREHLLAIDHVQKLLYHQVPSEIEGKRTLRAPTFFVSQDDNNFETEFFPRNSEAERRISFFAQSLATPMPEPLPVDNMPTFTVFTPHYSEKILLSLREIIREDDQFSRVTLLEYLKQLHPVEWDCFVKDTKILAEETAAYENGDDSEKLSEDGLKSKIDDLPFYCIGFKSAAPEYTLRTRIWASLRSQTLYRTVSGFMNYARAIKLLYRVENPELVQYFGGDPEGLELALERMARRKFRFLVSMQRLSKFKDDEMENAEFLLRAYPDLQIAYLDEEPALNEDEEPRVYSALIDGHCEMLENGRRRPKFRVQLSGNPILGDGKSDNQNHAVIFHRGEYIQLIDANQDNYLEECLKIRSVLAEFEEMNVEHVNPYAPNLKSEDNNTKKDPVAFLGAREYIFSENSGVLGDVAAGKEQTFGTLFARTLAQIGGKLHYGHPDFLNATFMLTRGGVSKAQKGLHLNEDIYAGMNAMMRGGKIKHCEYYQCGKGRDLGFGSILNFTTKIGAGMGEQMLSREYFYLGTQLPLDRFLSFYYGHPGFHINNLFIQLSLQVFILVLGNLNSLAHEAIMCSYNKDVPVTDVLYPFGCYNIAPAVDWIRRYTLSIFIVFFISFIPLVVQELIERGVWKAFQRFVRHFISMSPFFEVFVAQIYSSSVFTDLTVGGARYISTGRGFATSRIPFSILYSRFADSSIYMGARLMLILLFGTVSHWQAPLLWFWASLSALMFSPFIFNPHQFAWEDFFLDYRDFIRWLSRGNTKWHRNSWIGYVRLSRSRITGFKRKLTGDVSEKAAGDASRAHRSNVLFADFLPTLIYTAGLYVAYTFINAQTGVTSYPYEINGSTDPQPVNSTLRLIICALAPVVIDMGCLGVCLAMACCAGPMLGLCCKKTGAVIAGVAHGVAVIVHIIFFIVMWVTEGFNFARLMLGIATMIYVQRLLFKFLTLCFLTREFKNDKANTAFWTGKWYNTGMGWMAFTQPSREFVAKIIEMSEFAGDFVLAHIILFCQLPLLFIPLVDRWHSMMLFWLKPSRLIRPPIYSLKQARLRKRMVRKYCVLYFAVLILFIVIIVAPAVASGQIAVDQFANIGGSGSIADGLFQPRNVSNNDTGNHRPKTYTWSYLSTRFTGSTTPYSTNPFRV
Sequence (O42825 1-195 partner limits assumed): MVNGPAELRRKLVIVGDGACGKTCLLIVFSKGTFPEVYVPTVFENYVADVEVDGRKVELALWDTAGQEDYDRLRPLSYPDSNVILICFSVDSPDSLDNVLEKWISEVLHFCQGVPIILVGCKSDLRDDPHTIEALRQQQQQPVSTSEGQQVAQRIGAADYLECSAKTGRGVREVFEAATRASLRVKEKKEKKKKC
assay endpoint: IC50
Please give the number followed by its unit.

Record excerpt, results attached:
molecule=CC1(COc2c(N3CCN(S(=O)(=O)Cc4ccc(I)cc4)CC3)cnn(-c3cccc(Cl)c3)c2=O)CC1 recorded_measurement="107 nM"
molecule="CC1(COc2c(N3CCN(S(=O)(=O)Cc4cccnc4N)CC3)cnn(-c3cccc(Cl)c3)c2=O)CC1 [Compound 1574Zr]" recorded_measurement="239 nM"

// moving on: another record for IC50
The molecule identified as O=c1c(OCC2(CF)CC2)c(N2CCN(S(=O)(=O)Cc3ccccc3)CC2)cnn1-c1cccc(Cl)c1 [1122Z] registered its IC50 at 54.8 nM
